# tested_on: HCV polymerase (NS5B570n-Con1) (Hepatitis C virus genotype 1b)
# Construct: contains a 21 amino acid deletion at the C-terminus relative to the full-length HCV polymerase; 6-histidine (N); made in house; host or cells: E. coli BL21 (DE) pLysS
# experiment_notes: HCV NS5B RNA polymerase activity assay
# Format: biochemical, HCV Con1 strain
# measurement_parameters: IC50 NS5B polymerase assay, Table I
Provide the recorded pIC50 for the entries that follow.
Answers are plain numbers, as −log10 of the molar value.

Examples from the recorded data:
INSERT INTO results (smiles_representation, metric_name, val) VALUES
  ('CNC(=O)c1c(-c2ccc(Nc3cccc(OC)c3)cc2)oc2cc(N(CCO)S(C)(=O)=O)c(OC)cc12', 'pIC50', 6.87),
  ('CNC(=O)c1c(-c2ccc(Oc3ccc(F)cc3)cc2)oc2cc(N(CCCC#N)S(C)(=O)=O)c(C3CC3)cc12', 'pIC50', 8.15);

Count: 4. Required value per item: pIC50.
1. CNC(=O)c1c(-c2ccc(Oc3ccc(F)cc3)cc2)oc2cc(N(C3CCNCC3)S(C)(=O)=O)c(C3CC3)cc12
2. CNC(=O)c1c(-c2ccc(Nc3ccc(Cl)cc3)cc2)oc2cc(N(CCO)S(C)(=O)=O)c(OC(C)C)cc12
3. CNC(=O)c1c(-c2ccc(Oc3ccc(F)cc3)cc2)oc2cc(N(CCS(N)(=O)=O)S(C)(=O)=O)c(C3CC3)cc12
4. CNC(=O)c1c(-c2ccc(Oc3ccccc3)cc2)oc2cc(C(C)=O)c(C3CC3)cc12

1: 6.42; 2: 6.09; 3: 7.85; 4: 6.44

Name the recorded pIC50 for `CNC(=O)c1c(-c2ccc(Oc3ccc(F)cc3)cc2)oc2cc(N(CCCS(N)(=O)=O)S(C)(=O)=O)c(C3CC3)cc12` . 8.15

###

Provide the recorded pIC50 for the entries that follow.
# tested_on: HCV polymerase (NS5B570n-Con1) (Hepatitis C virus genotype 1b)
# Construct: contains a 21 amino acid deletion at the C-terminus relative to the full-length HCV polymerase; 6-histidine (N); made in house; host or cells: E. coli BL21 (DE) pLysS
# experiment_notes: HCV NS5B RNA polymerase activity assay
# Assay type: biochemical, HCV Con1 strain
# measurement_parameters: IC50 NS5B polymerase assay, Table I
Give bare numbers, as −log10 of the molar value.

Examples from the recorded data:
INSERT INTO results (compound, tested_on, val) VALUES
  ('CNC(=O)c1c(-c2ccc(Nc3ccc(F)cc3)cc2)oc2cc(N(CCO)S(C)(=O)=O)c(OC(C)C)cc12 [Compound I-31]', 'HCV polymerase (NS5B570n-Con1) (Hepatitis C virus genotype 1b)', 7.04),
  ('CNC(=O)c1c(-c2ccc(Oc3ccccc3)cc2)oc2cc(N3CCCS3(=O)=O)c(C3CC3)cc12 [Compound I-82]', 'HCV polymerase (NS5B570n-Con1) (Hepatitis C virus genotype 1b)', 7.18),
  ('CNC(=O)c1c(-c2ccc(Oc3ccc(F)cc3)cc2)oc2cc(N(CCN)S(C)(=O)=O)c(OC)cc12 [Compound I-53]', 'HCV polymerase (NS5B570n-Con1) (Hepatitis C virus genotype 1b)', 6.60);

Now examine the next entry.
Name the recorded pIC50 for CNC(=O)c1c(-c2ccc(Oc3ccc(Cl)cc3)cc2)oc2cc(N(CCO)S(C)(=O)=O)c(OC(C)C)cc12 [Compound I-27] . 7.15

###

# tested_on: HCV polymerase (NS5B570n-Con1) (Hepatitis C virus genotype 1b, UniProt Q9WMX2)
# Construct: contains a 21 amino acid deletion at the C-terminus relative to the full-length HCV polymerase; 6-histidine (N); made in house; host or cells: E. coli BL21 (DE) pLysS
# experiment_notes: HCV NS5B RNA polymerase activity assay
# Assay type: biochemical, HCV Con1 strain
# measurement_parameters: Polymerase Assay IC50, Table II
metric_name: IC50 (nM)
Give bare numbers, in nM.

INSERT INTO assay_data (compound, val) VALUES
  ('CNC(=O)c1c(-c2ccc(Nc3ccccc3)cc2)oc2cc(N(CCO)S(C)(=O)=O)c(OC)cc12 [Compound I-1]', 5);

Now examine the next entry.
// lookup IC50 | system=HCV polymerase (NS5B570n-Con1) (Hepatitis C virus genotype 1b, UniProt Q9WMX2) | key= CNC(=O)c1c(-c2ccc(Oc3ccc(F)cc3)cc2)oc2cc(N(CCCN)S(C)(=O)=O)c(C3CC3)cc12 [Compound I-69] 18

###

metric_name: melting point

INSERT INTO assay_data (smiles_representation, val) VALUES
  ('CNC(=O)c1c(-c2ccc(Oc3ccccc3)cc2)oc2cc(N3CCN(C)S3(=O)=O)c(C3CC3)cc12', '105 to 107 °C'),
  ('CNC(=O)c1c(-c2ccc(Oc3ccccc3)cc2)oc2cc(N3CCNS3(=O)=O)c(C3CC3)cc12', '183.4 to 184.5 °C');

Count: 3. Required value per item: melting point.
1. CNC(=O)c1c(-c2ccc(Nc3ccc(C(C)C)cc3)cc2)oc2cc(N(CCO)S(C)(=O)=O)c(OC)cc12
2. CNC(=O)c1c(-c2ccc(Oc3ccc(F)cc3)cc2)oc2cc(N(CCO)S(C)(=O)=O)c(C3CC3)cc12
3. CNC(=O)c1c(-c2ccc(Oc3ccc(F)cc3)cc2)oc2cc(N(CCS(C)(=O)=O)S(C)(=O)=O)c(C3CC3)cc12

1: 223.9 to 234.5 °C; 2: 110 to 115 °C; 3: 158 to 160 °C

Count: 7. Required value per item: melting point.
1. CNC(=O)c1c(-c2ccc(Oc3ccccc3)cc2)oc2cc(N3CCCCS3(=O)=O)c(C3CC3)cc12
2. CNC(=O)c1c(-c2ccc(Oc3ccccc3)cc2)oc2cc(N(CCO)S(C)(=O)=O)c(C3CC3)cc12
3. CNC(=O)c1c(-c2ccc(Oc3ccc(F)cc3)cc2)oc2cc(N(CCO)S(C)(=O)=O)ccc12
4. CNC(=O)c1c(-c2ccc(Nc3ccccc3)cc2)oc2cc(N(CCO)S(C)(=O)=O)c(OC)cc12
5. CNC(=O)c1c(-c2ccc(Oc3ccc(F)cc3)cc2)oc2cc(N(CCN)S(C)(=O)=O)c(C3CC3)cc12.Cl
6. CNC(=O)c1c(-c2ccc(Oc3ccc(F)cc3)cc2)oc2cc(NS(C)(=O)=O)c(C3CC3)cc12
7. CNC(=O)c1c(-c2ccc(Oc3ccccc3)cc2)oc2cc(N3CCOCC3)c(C3CC3)cc12

["197 to 199 °C", "110 to 115 °C", "214.6 to 215.7 °C", "144.6 to 146.9 °C", "223 to 224 °C", "169 to 170 °C", "223.4 to 223.9 °C"]

###

# tested_on: HCV polymerase (NS5B570n-Con1) (Hepatitis C virus genotype 1b, UniProt Q9WMX2)
# Construct: contains a 21 amino acid deletion at the C-terminus relative to the full-length HCV polymerase; 6-histidine (N); made in house; host or cells: E. coli BL21 (DE) pLysS
# experiment_notes: HCV NS5B RNA polymerase activity assay
# Type: biochemical, HCV Con1 strain
# measurement_parameters: IC50 NS5B polymerase assay, Table I
metric_name: pIC50
Give bare numbers, as −log10 of the molar value.

Examples from the recorded data:
INSERT INTO measurements (smiles_representation, val) VALUES
  ('CNC(=O)c1c(-c2ccc(Oc3ccc(F)cc3)cc2)oc2cc(N(CCCSC)S(C)(=O)=O)c(C3CC3)cc12', 7.74),
  ('CNC(=O)c1c(-c2ccc(Oc3ccccc3)cc2)oc2cc(-c3c(C)noc3C)c(C3CC3)cc12', 6.46),
  ('CNC(=O)c1c(-c2ccc(Oc3ccc(F)cc3)cc2)oc2cc(C(C)(C)O)c(C3CC3)cc12', 7.41),
  ('CNC(=O)c1c(-c2ccc(Oc3ccc(C#N)cc3)cc2)oc2cc(N(CCO)S(C)(=O)=O)c(OC)cc12', 5.97),
  ('CNC(=O)c1c(-c2ccc(Oc3ccc(F)cc3)cc2)oc2cc(N(C)S(C)(=O)=O)c(Cl)cc12', 7.54),
  ('CNC(=O)c1c(-c2ccc(Oc3ccccc3)cc2)oc2cc(N3CCOCC3)c(C3CC3)cc12', 6.17);

Now examine the next entry.
Name the recorded pIC50 for `CCc1cc2c(C(=O)NC)c(-c3ccc(Oc4ccc(F)cc4)cc3)oc2cc1N(CCO)S(C)(=O)=O` . 7.06

###

# tested_on: HCV polymerase (NS5B570n-Con1) (Hepatitis C virus genotype 1b, UniProt Q9WMX2)
# Construct: contains a 21 amino acid deletion at the C-terminus relative to the full-length HCV polymerase; 6-histidine (N); made in house; host or cells: E. coli BL21 (DE) pLysS
# experiment_notes: HCV NS5B RNA polymerase activity assay
# Assay type: biochemical, HCV Con1 strain
# measurement_parameters: IC50 NS5B polymerase assay, Table I
Provide the recorded IC50 for the entries that follow.

INSERT INTO measurements (compound, tested_on, val) VALUES
  ('CNC(=O)c1c(-c2ccc(Oc3ccccc3)cc2)oc2cc(N(CCO)S(C)(=O)=O)c(C3CC3)cc12 [Compound I-33]', 'HCV polymerase (NS5B570n-Con1) (Hepatitis C virus genotype 1b, UniProt Q9WMX2)', '0.021 µM');

Count: 3. Required value per item: IC50.
1. CNC(=O)c1c(-c2ccc(Oc3ccccc3Cl)cc2)oc2cc(N(CCO)S(C)(=O)=O)c(OC(C)C)cc12 [Compound I-49]
2. CNC(=O)c1c(-c2ccc(Oc3ccc(F)cc3)cc2)oc2cc(N(C)S(C)(=O)=O)c(OC)cc12 [Compound I-35]
3. CNC(=O)c1c(-c2ccc(Oc3ccc(F)cc3)cc2)oc2cc(N(CCCO)S(C)(=O)=O)c(C3CC3)cc12 [Compound I-106]

0.143 µM
0.051 µM
0.018 µM
